experiment: HepG2 cell viability effects, profiling panel, calcein-AM fluorescence, 48 h, basal (AID 1164); conditions: higher = more signal; further: test concentration not given here
So I've got a bunch of molecules here, and I need their z-score values.

MOLECULE	z-score
COc1ccc([Si](C)(C)[C@@H]2[C@@H](CC(=O)N(CCO)Cc3ccccc3)O[C@]3(C(=O)N(Cc4cccc(N5CCOC5=O)c4)c4ccccc43)[C@H]2C)cc1	-1.64

Give z-score for each of the items listed below.
1. COc1ccc([Si](C)(C)[C@@H]2[C@@H](CC(=O)N(CCO)Cc3ccccc3)O[C@]3(C(=O)N(Cc4cccc(N5C(=O)c6cccc7cccc5c67)c4)c4ccccc43)[C@H]2C)cc1
2. COc1ccccc1CN1C(=O)c2ccccc2[C@](Cc2ccccc2I)(C(=O)NCC(F)(F)F)[C@@H]1c1ccc(CO)cc1
3. COCCOC(=O)N1C(=O)[C@@]2(c3cc(C#CC4=CCCCC4)ccc31)[C@H](c1ccc(OCCO)cc1)N1[C@H](c3ccccc3)[C@H](c3ccccc3)OC(=O)[C@H]1[C@@H]2C(=O)NC[C@H](O)c1ccccc1
4. C[C@]1(C(=O)NC2CC2)c2ccccc2C(=O)N(Cc2ccccc2)[C@H]1c1ccc(CO)cc1
5. O=C1O[C@H](c2ccccc2)[C@H](c2ccccc2)N2[C@H]1[C@@H](C(=O)Nc1nc3ccccc3s1)[C@]1(C(=O)Nc3ccc(C#CCCO)cc31)[C@H]2c1ccc(O)cc1
6. CCC(CC)C(O)C1C=CC2C(=O)N(c3ccccc3)C(=O)C2N1Nc1ccc(C(C)C)cc1 (centres undefined)
7. C=CCOC(=O)[C@H]1[C@@H]2C(=O)O[C@@H](c3ccccc3)[C@@H](c3ccccc3)N2[C@@H](c2ccc(OCCOC(=O)[C@@H]3C[C@@H]4C(=O)N[C@@H](CCCCNC(C)=O)C(=O)N4[C@@H]3c3ccc(O)cc3)cc2)[C@]12C(=O)Nc1ccc(I)cc12

**A:**
1. -1.12
2. -0.568
3. 0.688
4. -0.577
5. -0.257
6. 0.0413
7. -0.786

Give z-score for each of the items listed below.
1. O[C@@H](Cc1ccccc1)[C@@H](/C=C/C1CC1)N(CC#Cc1ccccc1)Cc1cccc(Cl)c1
2. COC(=O)[C@@]1(Cc2ccccc2)[C@@H]2C(=CC(=O)[C@H]2CC(=O)C(=O)N(C)C)CN1C(=O)c1ccccc1
3. COCCOC(=O)N1C(=O)[C@@]2(c3cc(C#CC4=CCCCC4)ccc31)[C@H](C(=O)N1CCCCCCC1)[C@H]1C(=O)O[C@H](c3ccccc3)[C@H](c3ccccc3)N1[C@@H]2c1ccc(O)cc1
4. CC(C)[Si](C#CCCCC#N)(O[C@H](c1ccccc1)c1cn([C@H](CO)Cc2ccccc2)nn1)C(C)C
5. COCCOC(=O)N1C(=O)[C@@]2(c3cc(C#CC4=CCCCC4)ccc31)[C@H](c1ccc(O)cc1)N1[C@H](c3ccccc3)[C@H](c3ccccc3)OC(=O)[C@H]1[C@@H]2C(=O)N1CCN(c2ncccn2)CC1
6. C=C(C)c1cc2c(c(CCCCCC)n1)[Si](C(C)C)(C(C)C)OC2

**A:**
0.891
0.11
0.474
-0.0933
0.19
-0.567

====

So I've got a bunch of compounds here, and I need their composite z-score values.
target: Neurogenic locus notch homolog protein 2 (Homo sapiens) (UniProt Q04721); assay: Notch2 binders on small-molecule microarrays, primary screen, biochemical, small-molecule microarray, 635 nm fluorescence, stem cell growth factors (AID 1073); settings: Notch2 binding, higher = more signal
Sequence (Q04721 whole entry, looked up): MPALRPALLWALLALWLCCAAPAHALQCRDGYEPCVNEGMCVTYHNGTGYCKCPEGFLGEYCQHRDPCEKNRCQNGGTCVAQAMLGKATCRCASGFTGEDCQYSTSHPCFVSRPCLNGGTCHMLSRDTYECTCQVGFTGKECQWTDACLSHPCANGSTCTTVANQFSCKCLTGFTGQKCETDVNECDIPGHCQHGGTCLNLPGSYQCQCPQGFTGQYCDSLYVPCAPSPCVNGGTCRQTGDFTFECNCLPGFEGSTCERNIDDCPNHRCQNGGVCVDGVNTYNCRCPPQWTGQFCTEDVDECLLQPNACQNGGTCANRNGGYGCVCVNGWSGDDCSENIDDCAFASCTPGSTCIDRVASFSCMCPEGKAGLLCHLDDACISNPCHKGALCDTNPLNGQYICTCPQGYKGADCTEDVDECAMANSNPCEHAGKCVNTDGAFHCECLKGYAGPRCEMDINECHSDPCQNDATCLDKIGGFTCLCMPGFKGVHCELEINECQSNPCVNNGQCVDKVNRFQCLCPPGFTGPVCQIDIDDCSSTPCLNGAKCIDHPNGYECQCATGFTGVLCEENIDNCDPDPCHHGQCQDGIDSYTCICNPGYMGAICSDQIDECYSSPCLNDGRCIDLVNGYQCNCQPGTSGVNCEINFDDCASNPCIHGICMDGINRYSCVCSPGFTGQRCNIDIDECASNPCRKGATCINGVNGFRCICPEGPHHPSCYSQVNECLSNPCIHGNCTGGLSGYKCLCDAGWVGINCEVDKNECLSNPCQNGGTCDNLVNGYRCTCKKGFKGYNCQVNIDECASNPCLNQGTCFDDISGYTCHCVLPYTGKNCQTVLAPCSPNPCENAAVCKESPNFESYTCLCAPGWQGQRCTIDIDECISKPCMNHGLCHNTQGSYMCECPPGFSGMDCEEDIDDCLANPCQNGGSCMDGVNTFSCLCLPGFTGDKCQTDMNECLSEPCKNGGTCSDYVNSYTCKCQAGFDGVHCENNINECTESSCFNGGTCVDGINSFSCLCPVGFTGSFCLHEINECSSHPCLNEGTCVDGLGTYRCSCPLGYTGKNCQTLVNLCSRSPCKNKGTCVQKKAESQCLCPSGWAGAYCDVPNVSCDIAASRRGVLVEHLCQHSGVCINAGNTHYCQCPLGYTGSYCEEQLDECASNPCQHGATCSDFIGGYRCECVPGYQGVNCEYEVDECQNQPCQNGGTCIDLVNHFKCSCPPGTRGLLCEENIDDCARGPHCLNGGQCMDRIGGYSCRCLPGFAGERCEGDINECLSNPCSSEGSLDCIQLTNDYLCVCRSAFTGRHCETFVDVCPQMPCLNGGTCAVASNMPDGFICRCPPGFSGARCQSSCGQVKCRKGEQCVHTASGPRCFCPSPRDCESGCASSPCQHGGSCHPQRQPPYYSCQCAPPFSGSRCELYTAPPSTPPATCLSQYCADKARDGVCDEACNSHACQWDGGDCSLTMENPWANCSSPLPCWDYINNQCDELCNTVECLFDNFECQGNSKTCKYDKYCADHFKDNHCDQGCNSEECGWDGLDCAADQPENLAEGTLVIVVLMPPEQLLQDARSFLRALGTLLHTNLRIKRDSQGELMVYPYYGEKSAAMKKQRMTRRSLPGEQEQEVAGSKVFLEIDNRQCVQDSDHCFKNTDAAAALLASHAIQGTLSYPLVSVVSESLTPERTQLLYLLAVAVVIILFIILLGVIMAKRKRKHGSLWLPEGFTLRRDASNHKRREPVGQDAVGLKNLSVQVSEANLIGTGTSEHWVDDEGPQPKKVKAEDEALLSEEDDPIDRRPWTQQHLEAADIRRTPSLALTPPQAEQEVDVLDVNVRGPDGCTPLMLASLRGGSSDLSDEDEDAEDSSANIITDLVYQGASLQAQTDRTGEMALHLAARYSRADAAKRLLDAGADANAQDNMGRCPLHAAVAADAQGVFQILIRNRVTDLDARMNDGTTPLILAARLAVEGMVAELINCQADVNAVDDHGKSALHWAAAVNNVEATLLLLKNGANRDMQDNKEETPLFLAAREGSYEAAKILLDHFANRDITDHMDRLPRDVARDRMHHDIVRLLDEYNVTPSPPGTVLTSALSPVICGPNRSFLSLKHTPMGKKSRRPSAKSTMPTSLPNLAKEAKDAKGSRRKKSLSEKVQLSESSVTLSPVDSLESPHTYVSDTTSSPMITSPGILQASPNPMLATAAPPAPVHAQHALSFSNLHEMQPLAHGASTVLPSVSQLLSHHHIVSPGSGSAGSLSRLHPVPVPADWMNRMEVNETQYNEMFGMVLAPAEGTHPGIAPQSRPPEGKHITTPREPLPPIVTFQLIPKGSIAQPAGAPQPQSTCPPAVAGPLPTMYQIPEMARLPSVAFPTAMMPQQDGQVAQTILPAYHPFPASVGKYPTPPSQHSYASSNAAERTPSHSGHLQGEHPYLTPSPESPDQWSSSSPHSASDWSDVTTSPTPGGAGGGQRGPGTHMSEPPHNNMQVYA
Numbers only.

> print(dat)
                                 mol.smiles                           subject.of.test  endpoint.value
1  C=CCNC(=O)[C@H]1[C@@H]2C(=O)O[C@@H](c3ccccc3)[C@@H](c3ccccc3)N2[C@@H](c2ccc(O)cc2)[C@]12C(=O)N(C(=O)OCCOC)c1ccccc12  Neurogenic locus notch homolog protein 2 (Homo sapiens) (UniProt Q04721)            1.05

Give composite z-score for each of the items listed below.
1. CCCCCCc1nc(-c2cc(C)c(OC)c(C)c2)c(C)c2c1[Si](C(C)C)(C(C)C)OC2
2. O=C1O[C@@H](c2ccccc2)[C@@H](c2ccccc2)N2[C@@H](c3ccccc3OCCO)[C@]3(C(=O)Nc4ccc(C#CCCO)cc43)[C@@H](C(=O)N3CCCCCCC3)[C@H]12
3. CO[C@H]1O[C@H](CO)[C@@H](OC(=O)Nc2ccccc2-c2ccccc2)[C@H](OC(=O)Nc2ccc3c(c2)OCO3)[C@H]1OC(=O)Nc1ccc2c(c1)OCO2
4. CO[C@H]1O[C@H](CO)[C@@H](OC(=O)Nc2ccc3c(c2)OCO3)[C@H](OC(=O)c2cc3ccccc3[nH]2)[C@H]1OC(=O)c1cc2ccccc2[nH]1
5. C[C@@H]1ON(c2ccc(C(=O)OC(C)(C)C)cc2)[C@H](c2ccc(O)cc2)[C@H]1C(=O)N1C(=O)OC[C@H]1Cc1ccccc1
6. O=c1n(-c2ccccc2)c(=O)n2n1CC(COc1ccccc1)=C([C@H](O)CCc1ccccc1)[C@@H]2CO
7. O=C1C=C(c2ccccc2)C(=O)c2ccc([C@H]3Oc4ccccc4S(=O)(=O)N4CCC[C@@H]34)cc21
8. CCCCCCc1nc(C2CC2)cc2c1[Si](C(C)C)(C(C)C)OC2

**A:**
[0.0241, 1.83, 1.47, -0.904, 1.37, 0.094, -0.405, -1.13]

**Q:** Name the recorded composite z-score for CN(C)CCCNC(=O)[C@@]1(C)c2ccccc2C(=O)N(Cc2ccccc2)[C@H]1c1ccc(CO)cc1 .
**A:** -0.675
